- Tested System: SHP2-C SH2;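 also: peptide library displayed on the E. coli surface as eCPX fusions, selected cells deep-sequenced, score is each peptide's frequency after selection divided by its frequency in the input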
- Test Description: SH2 binding enrichment of the phosphorylated peptide, bacterial display (enrichment ratio); higher = better substrate or ligand; peptides without Tyr show the background

Seq String: TVSQPYSFIEF [SEC22B_Y110_R108Q]
SH2 binding enrichment: 10.1
//
Seq String: EQLGEYKFQNA [ALB_Y425]
SH2 binding enrichment: 0.416
//
Seq String: PYSNSYENSLI [EPOR_Y489_P488S]
SH2 binding enrichment: 0.735
//
Seq String: FMCKVYSDPQP [FGFR1_Y280]
SH2 binding enrichment: 0.511
//
Seq String: VSFGEYRFRSV [CFTR_Y515_D513G_YF]
SH2 binding enrichment: 0.9
//
Seq String: HNVPIYEGFGL [ACTA1_Y168_A172G_YF]
SH2 binding enrichment: 0.823
//
Seq String: DTVRIYDDDFF [UBA1_Y560_E557V]
SH2 binding enrichment: 0.578
//
Seq String: SGRRRYTIAAL [TTR_Y125_P122R]
SH2 binding enrichment: 0.373
//
Seq String: GDGRFYMKEAI [PGM1_Y66]
SH2 binding enrichment: 0.658
//
Seq String: SSMSDYNPLEK [MYOC_Y479_I477S]
SH2 binding enrichment: 0.558
//
Seq String: LARDMYDKEYY [MET_Y1230]
SH2 binding enrichment: 0.614
//
Seq String: KMATAYIRSMS [BCO1_Y264_R267S]
SH2 binding enrichment: 0.59
//
Seq String: SQPASYQRRLL [PPIG_Y320]
SH2 binding enrichment: 0.54
//
Seq String: RFLTRYIFNRE [HLA-DQB1_Y62_V59L_YF]
SH2 binding enrichment: 1.17

* * *

- Tested System: EPHB1 (UniProt P54762)
- Sequence (P54762 whole entry, looked up): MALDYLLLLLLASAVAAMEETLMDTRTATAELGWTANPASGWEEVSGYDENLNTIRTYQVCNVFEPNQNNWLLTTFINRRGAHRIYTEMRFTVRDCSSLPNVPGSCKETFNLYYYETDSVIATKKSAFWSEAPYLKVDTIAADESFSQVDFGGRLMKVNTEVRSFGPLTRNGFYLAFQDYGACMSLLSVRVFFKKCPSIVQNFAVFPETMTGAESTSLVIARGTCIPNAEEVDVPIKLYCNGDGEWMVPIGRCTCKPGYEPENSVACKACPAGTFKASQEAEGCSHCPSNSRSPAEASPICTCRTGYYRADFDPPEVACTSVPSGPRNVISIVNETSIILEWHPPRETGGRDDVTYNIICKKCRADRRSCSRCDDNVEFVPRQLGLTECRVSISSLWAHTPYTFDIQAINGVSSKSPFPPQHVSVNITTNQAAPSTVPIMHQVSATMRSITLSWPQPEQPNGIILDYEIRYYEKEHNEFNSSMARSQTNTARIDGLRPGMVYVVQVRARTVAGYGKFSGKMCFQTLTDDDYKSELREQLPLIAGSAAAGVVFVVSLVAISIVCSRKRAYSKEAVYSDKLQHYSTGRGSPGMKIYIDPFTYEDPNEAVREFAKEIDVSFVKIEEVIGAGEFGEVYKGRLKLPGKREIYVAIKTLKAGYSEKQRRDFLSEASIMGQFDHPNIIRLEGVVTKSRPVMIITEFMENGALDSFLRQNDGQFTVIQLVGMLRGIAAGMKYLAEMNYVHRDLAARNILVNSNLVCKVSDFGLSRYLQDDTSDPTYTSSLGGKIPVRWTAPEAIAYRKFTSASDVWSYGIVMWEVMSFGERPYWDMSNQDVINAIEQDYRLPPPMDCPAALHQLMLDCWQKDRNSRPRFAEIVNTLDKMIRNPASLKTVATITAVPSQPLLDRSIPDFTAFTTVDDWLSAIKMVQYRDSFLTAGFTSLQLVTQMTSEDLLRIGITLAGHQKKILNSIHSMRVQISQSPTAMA
- Test Description: phosphorylation enrichment, bacterial display (enrichment ratio); higher = better substrate or ligand; peptides without Tyr show the background

Seq String: LNERHYGGLTG [PGAM2_Y92]
phosphorylation enrichment: 0.417

Seq String: SASRSYSRSRS [SRRM4_Y549]
phosphorylation enrichment: 0.466

Seq String: SLAARYFNWVS [FLT4_Y1230_YF]
phosphorylation enrichment: 0.586

Seq String: TACNPYKPPGP
phosphorylation enrichment: 0.733

Seq String: LICRRYLVMQR [IL3RA_Y328_V323L]
phosphorylation enrichment: 0.827

Seq String: ISNATYKEIGL [FLT1_Y199]
phosphorylation enrichment: 0.352

Seq String: KVASVYEAPGF [NT5C_Y65]
phosphorylation enrichment: 3.77

Seq String: SGRRRYTIAAL [TTR_Y125_P122R]
phosphorylation enrichment: 0.615

Seq String: EQSNPYMVLDI [ROCK2_Y1197]
phosphorylation enrichment: 0.577

Seq String: RIFDFYSARKT [STOX1_Y858_A863T_YF]
phosphorylation enrichment: 0.467

Seq String: SVTCTYSPGLN [TP53_Y126_A129G]
phosphorylation enrichment: 0.761

Seq String: LAARFYNWVCF [FLT4_Y1231_S1235C_YF]
phosphorylation enrichment: 1.33

Seq String: SQPASYQRRLL [PPIG_Y320]
phosphorylation enrichment: 0.313

Seq String: LLTALYFISRG [KCNH2_Y780]
phosphorylation enrichment: 0.645

Seq String: PDSVDYRKKGY [CTSK_Y121]
phosphorylation enrichment: 0.599

Seq String: GQLIVYAPPEW [CNTN6_Y315_F314V]
phosphorylation enrichment: 0.574

Seq String: MANYMYKAGPS [MAML2_Y515]
phosphorylation enrichment: 1.32

Seq String: QITQVCGFFDE [PPP2CA_Y127_Y127C_YF]
phosphorylation enrichment: 0.645

Seq String: GNHISYYQSDG [CACNA1C_Y1757_V1755I]
phosphorylation enrichment: 0.668

Seq String: INQGPYENRSV [ATP6V1B1_Y462]
phosphorylation enrichment: 0.381

Seq String: PGAPAYRVLME [MYO5A_Y1245]
phosphorylation enrichment: 0.397

Seq String: ELTAKYLNYYQ [P3H4_Y181]
phosphorylation enrichment: 0.705

Seq String: DLDLTYIFPNI [PTEN_Y27_YF]
phosphorylation enrichment: 2.03

Seq String: CTTIHYNFKCN [TP53_Y234_M237K_YF]
phosphorylation enrichment: 0.381

Seq String: ADRNHYRRFPR [YBX1_Y145_YF]
phosphorylation enrichment: 0.452

Seq String: NVVQEYERVII [NPHS2_Y131_K126N]
phosphorylation enrichment: 2.13

Seq String: RLLVVYRWTQR [HBB_Y36_P37R]
phosphorylation enrichment: 0.372

Seq String: ELTAKYLNFFR [P3H4_Y181_Q186R_YF]
phosphorylation enrichment: 0.414

Seq String: EQKRYYNAMKK [SCN5A_Y1495_K1493R]
phosphorylation enrichment: 0.356

Seq String: ACVARYIFKRL [LPCAT3_Y348_W344C]
phosphorylation enrichment: 0.407

Seq String: MEIHAYHKLLE [LMNA_Y376_R377H]
phosphorylation enrichment: 0.475

Seq String: RARPPYTVAAD [ANKZF1_Y572]
phosphorylation enrichment: 0.4

Seq String: NQILPYIEELV [PPP2R1B_Y341_K343E]
phosphorylation enrichment: 0.673

Seq String: EWRSPYGLTPR [GRIN3B_Y601]
phosphorylation enrichment: 0.413

Seq String: PAQAAYQKVVA [HBB_Y131_V127A]
phosphorylation enrichment: 0.562

Seq String: GRVFVYRLSEQ [ITGAE_Y551_YF]
phosphorylation enrichment: 0.494

Seq String: GRSTFYWPSPR [GAGE12J_Y10_R13S_YF]
phosphorylation enrichment: 0.541

Seq String: WYQTKYEELQV [KRT6B_Y360_I365V]
phosphorylation enrichment: 0.61

Seq String: DPFHVYIKNRV [KCNE3_Y95_YF]
phosphorylation enrichment: 0.604

Seq String: IFRASYFRRGD [LTK_Y676_YF]
phosphorylation enrichment: 0.431

Seq String: LEQQKYTVTID [IKBKB_Y199_V203I]
phosphorylation enrichment: 0.932

Seq String: LGGAMYYLEAE [PKHD1_Y452]
phosphorylation enrichment: 1.62

Seq String: ASFPLYEPAKM [MKI67_Y340]
phosphorylation enrichment: 18.1

Seq String: GRQGIYTENER [GPR143_Y231]
phosphorylation enrichment: 0.496

Seq String: CDGKEYDPVEA [MAPRE2_Y167_Y162C]
phosphorylation enrichment: 0.64

Seq String: YDCKWYIPLTD [BCR_Y756]
phosphorylation enrichment: 0.689

Seq String: MASTSYDFCRV [BST2_Y6_YF]
phosphorylation enrichment: 0.576

Seq String: PAGSGYPAYLG [ATP6V1A_Y374_D371G]
phosphorylation enrichment: 1.22

Seq String: DSFWSYCNAVA [SLC20A2_Y436_S434W_YF]
phosphorylation enrichment: 0.76

Seq String: GLRFGYGGLGG [KRTAP20-2_Y15_V17G_YF]
phosphorylation enrichment: 0.455

Seq String: RSRQIYDAFIM [GRK3_Y109_YF]
phosphorylation enrichment: 2.49

Seq String: EDGCIYPATIA [SMN1_Y109]
phosphorylation enrichment: 0.744

Seq String: TCRPPYFHRNC [HGD_Y333_F329C_YF]
phosphorylation enrichment: 0.215

Seq String: LVTRSYLLGNS [LMNA_Y646]
phosphorylation enrichment: 0.931

Seq String: TEAEPYYRSLR [NPHS1_Y1138]
phosphorylation enrichment: 0.422

Seq String: ERLLDYTRTVQ [INPP5E_Y439]
phosphorylation enrichment: 0.663

Seq String: TVSQPYSFIEF [SEC22B_Y110_R108Q]
phosphorylation enrichment: 0.878

Seq String: QRIHNYFEHRF [HCN4_Y554_D553N_YF]
phosphorylation enrichment: 0.543

* * *

- Tested on: c-Src
- Test Description: phosphorylation enrichment, bacterial display (enrichment ratio); higher = better substrate or ligand; peptides without Tyr show the background

Seq String: IYHLSYLHNCE [PDE6B_Y227]
phosphorylation enrichment: 2.56

Seq String: MGSYNYLGFAW [SPTLC2_Y178_R183W]
phosphorylation enrichment: 1.04

Seq String: GTFVIYVRFGG [FLNB_Y1687_YF]
phosphorylation enrichment: 0.465

Seq String: ENQEIYRKAFD [KPNA1_Y493_Q494R]
phosphorylation enrichment: 0.451

Seq String: LSSETYVKSFT [F5_Y2149_M2148T_YF]
phosphorylation enrichment: 0.512

Seq String: NPQKSYFILLF [WAS_Y83_R86L_YF]
phosphorylation enrichment: 0.337

Seq String: LNERHYGGLTG [PGAM2_Y92]
phosphorylation enrichment: 0.47

Seq String: WSRAMYPDLGP [STARD8_Y330]
phosphorylation enrichment: 0.39

Seq String: SYSGEYGSGGG [ZG16_Y30_G32S]
phosphorylation enrichment: 0.545

Seq String: HLQQSYLPRGT [TEX45_Y396]
phosphorylation enrichment: 1.32

Seq String: RPFSPYIIRGM [LRP5_Y1531_R1529S_YF]
phosphorylation enrichment: 0.886

Seq String: VYSSDYFSFVL [USP24_Y2138]
phosphorylation enrichment: 4.61

Seq String: EDDIIYTQDFM [STK11_Y362_T367M]
phosphorylation enrichment: 1.1

Seq String: HFVDEYDRTIE [KRAS_Y32_P34R]
phosphorylation enrichment: 0.989

Seq String: NTGDFCDLFGG [PTPN11_Y63_Y63C_YF]
phosphorylation enrichment: 0.413

Seq String: LTKQEYDEAGP [ACTA1_Y364_I359L]
phosphorylation enrichment: 0.996

Seq String: HEKFLYFLPAS [DYNC2H1_Y346]
phosphorylation enrichment: 1.08

Seq String: LYEDCYLLGTS [ASS1_Y87_R86C]
phosphorylation enrichment: 4.68

Seq String: GEDDVYDSVPG [FGR_opt_2018]
phosphorylation enrichment: 0.933

Seq String: KVQVSYKGETK [HSPA1A_Y107]
phosphorylation enrichment: 0.352

Seq String: NGVSFYINLCQ [IGF2R_Y2025_YF]
phosphorylation enrichment: 0.472

Seq String: GESQGYDIMEA [MSH2_Y863_P868A]
phosphorylation enrichment: 0.417

Seq String: CTTTHYNFMCN [TP53_Y234_I232T_YF]
phosphorylation enrichment: 0.375

Seq String: ASMAKYFASEI [ACADSB_Y372_YF]
phosphorylation enrichment: 0.35

Seq String: KVGNGYISAAE [CALM2_Y100_D96V]
phosphorylation enrichment: 0.391

Seq String: LEQGEYALRSH [HADHB_Y244_D242G]
phosphorylation enrichment: 0.681

Seq String: NAGAFYVLSTL [FLVCR2_Y325_A326V]
phosphorylation enrichment: 0.523

Seq String: PSDPSYEDMRE [BMPR1A_Y467]
phosphorylation enrichment: 0.534

Seq String: TFSPPYYHRNC [HGD_Y333_R330S]
phosphorylation enrichment: 0.535
